molecular target: Human immunodeficiency virus type 1 reverse transcriptase (Human immunodeficiency virus 1, UniProt Q72547)
Readout: IC50 (nM)

O=C1Nc2c(O)cc(Cl)cc2[C@@](C#CC2CC2)(C(F)(F)F)O1 : 2340

a: O=C1Nc2ccc(Cl)cc2C(C#CC2(O)CC2)(C(F)(F)F)O1 (stereo unspecified)
b: O=C1Nc2c(OS(=O)(=O)O)cc(Cl)cc2[C@@](C#CC2CC2)(C(F)(F)F)O1.c1ccncc1
-- ask // compare measured IC50 between a and b ; output the lower one // return label of chosen record
-- reply a

1: O=C1Nc2cc(O)c(Cl)cc2C(C#CC2CC2)(C(F)(F)F)O1 (stereo unspecified)
2: O=C1Nc2c(O[C@@H]3O[C@H](C(=O)O)[C@@H](O)[C@H](O)[C@H]3O)cc(Cl)cc2[C@@](C#CC2CC2)(C(F)(F)F)O1
-- ask Response body: label of entry with the larger IC50; valid values 1 , 2 . // return label of chosen record
-- reply 2

----------
test system: Nucleic Acid; experiment: Inhibitory activity against RNA; type: functional
Readout: IC90 (µM)

O=C1Nc2ccc(Cl)cc2[C@@](C#CC2CC2)(C(F)(F)F)O1 : 0.0017
O=C1Nc2c(O)cc(Cl)cc2[C@@](C#CC2CC2)(C(F)(F)F)O1 : 0.063
O=C1Nc2c(OS(=O)(=O)O)cc(Cl)cc2[C@@](C#CC2CC2)(C(F)(F)F)O1.c1ccncc1 : 1.01

I: O=C1Nc2ccc(Cl)cc2C(C#CC2(O)CC2)(C(F)(F)F)O1 (configuration not stated)
II: O=C1Nc2cc(O)c(Cl)cc2C(C#CC2CC2)(C(F)(F)F)O1 (configuration not stated)
-- ask Response body: label of entry with the larger IC90; valid values I , II . // return label of chosen record
-- reply II
(II: 0.422 µM, I: 0.033 µM)
